- tested.target: UniProt:Q72874
- assay.info: Binding affinity towards HIV protease
pKi: −log10 of the molar value.
quantity.kind: pKi

compound	pKi
CCC(Cc1ccccc1)c1cc(O)c(C(c2cccc(NC(=O)Cc3cccnc3)c2)C2CC2)c(=O)o1 (centres undefined)	7.36
COc1c(C(O)c2ccccc2)c(=O)oc2ccccc12 (centres undefined)	9.00

P = CCC(c1cccc(NC(=O)CCNC2C=Cc3ccccc32)c1)c1c(O)oc2ccccc2c1=O (centres undefined)
Q = CCC(Cc1ccccc1)c1cc(O)c(C(c2cccc(NC(=O)C(Cc3c[nH]cn3)NC(=O)OC(C)(C)C)c2)C2CC2)c(=O)o1 (centres undefined)
When the recorded pKi values are compared, which is smaller: that of P or that of Q ? Reply briefly: the label of your chosen item. P
(P: 6.96, Q: 8.40)

###

- tested.target: Human immunodeficiency virus type 1 protease (Human immunodeficiency virus 1) (UniProt Q72874)
quantity.kind: IC90 (µM)
Record the value in µM, omitting the unit from your answer.

Consider the reported IC90 for these molecules:
molecule	IC90 / µM
CCC(Cc1ccccc1)c1cc(O)c(C(c2cccc(NS(=O)(=O)c3ccc(Cl)cc3)c2)C2CC2)c(=O)o1 (stereo not drawn)	6.2
Cn1cnc(S(=O)(=O)Nc2cccc(C(c3c(O)cc(C(CC4CC4)CC4CC4)oc3=O)C3CC3)c2)c1 (racemic)	4.6

State, in one line, measured IC90 of CCC(Cc1ccccc1)c1cc(O)c(C(c2cccc(NS(=O)(=O)c3cccc4cccnc34)c2)C2CC2)c(=O)o1 (stereo not drawn) 6

State, in one line, measured IC90 of CCC(Cc1ccccc1)c1cc(O)c(C(c2cccc(NS(=O)(=O)c3cccnc3)c2)C2CC2)c(=O)o1 (stereo not drawn) 28.7

State, in one line, measured IC90 of CCC(Cc1ccccc1)c1cc(O)c(C(c2cccc(NS(=O)(=O)c3cn(C)cn3)c2)C2CC2)c(=O)o1 (mixture of isomers) 4.1

State, in one line, measured IC90 of CCC(Cc1ccccc1)c1cc(O)c(C(c2cccc(NS(=O)(=O)c3ccccc3)c2)C2CC2)c(=O)o1 (stereo not drawn) 7.6

State, in one line, measured IC90 of CCC(Cc1ccccc1)c1cc(O)c(C(c2cccc(NS(=O)(=O)c3cn(C)cn3)c2)C2CC2)c(=O)o1 (single isomer, unassigned; diastereomer 1) 4.5

State, in one line, measured IC90 of CCCS(=O)(=O)Nc1cccc(C(c2c(O)cc(C(CC)Cc3ccccc3)oc2=O)C2CC2)c1 (stereo not drawn) 11.1

###

- tested.target: Human immunodeficiency virus type 1 protease (Human immunodeficiency virus 1) (UniProt Q72874)
quantity.kind: IC90 (µM)

Consider the reported IC90 for these molecules:
molecule	observed.measurement
Cn1cnc(S(=O)(=O)Nc2cccc(C(c3c(O)cc(C(CC4CC4)CC4CC4)oc3=O)C3CC3)c2)c1 (single isomer, unassigned; enantiomer 2)	6.9
CCC(Cc1ccccc1)c1cc(O)c(C(c2cccc(NS(=O)(=O)c3cn(C)cn3)c2)C2CC2)c(=O)o1 (single isomer, unassigned; diastereomer 2)	5.7
CCC(Cc1ccccc1)c1cc(O)c(C(c2cccc(NS(=O)(=O)c3ccc(OC)cc3)c2)C2CC2)c(=O)o1 (stereo unspecified)	7.6
CCC(Cc1ccccc1)c1cc(O)c(C(c2cccc(NS(=O)(=O)c3cn(C)cn3)c2)C2CC2)c(=O)o1 (single isomer, unassigned; diastereomer 3)	6.8
O=c1cc(C(CC2CC2)CC2CC2)oc(O)c1C(c1cccc(NS(=O)(=O)c2cccc3cccnc23)c1)C1CC1 (stereo unspecified)	6.5
CCC(Cc1ccccc1)c1cc(O)c(C(c2cccc(NS(=O)(=O)c3ccc(C#N)cc3)c2)C2CC2)c(=O)o1 (stereo unspecified)	9.9
CCC(Cc1ccccc1)c1cc(O)c(C(c2cccc(NS(=O)(=O)c3cn(C)cn3)c2)C2CC2)c(=O)o1 (single isomer, unassigned; diastereomer 4)	6
N#Cc1ccc(S(=O)(=O)Nc2cccc(C(c3c(O)oc(C(CC4CC4)CC4CC4)cc3=O)C3CC3)c2)cc1 (stereo unspecified)	8.9

I = O=c1cc(C(CC2CC2)CC2CC2)oc(O)c1C(c1cccc(NS(=O)(=O)c2ccccc2)c1)C1CC1 (stereo unspecified)
II = O=c1cc(C(CC2CC2)CC2CC2)oc(O)c1C(c1cccc(NS(=O)(=O)c2ccc(F)cc2)c1)C1CC1 (stereo unspecified)
Pick the one with the larger IC90: I vs II Reply briefly: the label of your chosen item. I

###

- tested.target: UniProt Q72874
- assay.info: Binding affinity against HIV-1 protease.
pKi: −log10 of the molar value.
quantity.kind: pKi

I = O=c1cc(C(CC2CC2)CC2CC2)oc(O)c1C(c1cccc(NS(=O)(=O)c2cccc3cccnc23)c1)C1CC1 (configuration not stated)
II = O=c1cc(C(CC2CC2)CC2CC2)oc(O)c1C(c1cccc(NS(=O)(=O)c2ccccc2)c1)C1CC1 (configuration not stated)
Pick the one with the larger pKi: I vs II Reply briefly: the label of your chosen item. I
(I: 8.28, II: 7.64)

###

- tested.target: Human immunodeficiency virus type 1 protease (Human immunodeficiency virus 1)
- assay.info: Binding affinity against HIV-1 protease.
pKi: −log10 of the molar value.
quantity.kind: pKi

Consider the reported pKi for these compounds:
compound	pKi
CCC(Cc1ccccc1)c1cc(O)c(C(c2cccc(NS(=O)(=O)c3cn(C)cn3)c2)C2CC2)c(=O)o1 (single isomer, unassigned; diastereomer 3)	8.72
CCC(Cc1ccccc1)c1cc(O)c(C(c2cccc(NS(=O)(=O)c3cn(C)cn3)c2)C2CC2)c(=O)o1 (single isomer, unassigned; diastereomer 4)	8.85
CCC(Cc1ccccc1)c1cc(O)c(C(c2cccc(NS(=O)(=O)c3cn(C)cn3)c2)C2CC2)c(=O)o1 (single isomer, unassigned; diastereomer 2)	9.14
COc1ccc2c(O)c(C(c3cccc(NS(=O)(=O)c4ccc(C#N)cc4)c3)C3CC3)c(=O)oc2c1 (stereo not given)	8.24
Cn1cnc(S(=O)(=O)Nc2cccc(C(c3c(O)cc(CCc4ccccc4)oc3=O)C3CC3)c2)c1 (stereo not given)	9.01
CCC(CC1CCOCC1)c1cc(O)c(C(c2cccc(NS(=O)(=O)c3cn(C)cn3)c2)C2CC2)c(=O)o1 (stereo not given)	9.32
COCCOCCC(CCOCCOC)c1cc(O)c(C(c2cccc(NS(=O)(=O)c3cn(C)cn3)c2)C2CC2)c(=O)o1 (stereo not given)	8.38
CCC(Cc1ccccc1)c1cc(O)c(C(c2cccc(NS(=O)(=O)c3ccccc3)c2)C2CC2)c(=O)o1 (stereo not given)	7.77
CCC(Cc1ccccc1)c1cc(O)c(C(c2cccc(NS(=O)(=O)c3cccnc3)c2)C2CC2)c(=O)o1 (stereo not given)	7.92
Cc1cc(O)c(C(c2cccc(NS(=O)(=O)c3cn(C)cn3)c2)C2CC2)c(=O)o1 (stereo not given)	7.85

1 = O=c1cc(C(CC2CC2)CC2CC2)oc(O)c1C(c1cccc(NS(=O)(=O)c2ccc(F)cc2)c1)C1CC1 (stereo not given)
2 = N#Cc1ccc(S(=O)(=O)Nc2cccc(C(c3c(O)oc(C(CC4CC4)CC4CC4)cc3=O)C3CC3)c2)cc1 (stereo not given)
Pick the one with the larger pKi: 1 vs 2 Reply briefly: the label of your chosen item. 2

###

- tested.target: Human immunodeficiency virus type 1 protease (Human immunodeficiency virus 1, UniProt Q72874)
- assay.info: Binding affinity against HIV-1 protease.
Measured Ki, listed per entry for reference.
Record the value in nM, omitting the unit from your answer.

Consider the reported Ki for these molecules:
molecule	observed.measurement
CCCS(=O)(=O)Nc1cccc(C(c2c(O)cc(C(CC)Cc3ccccc3)oc2=O)C2CC2)c1 (stereo not drawn)	40
CCC(Cc1ccccc1)c1cc(O)c(C(c2cccc(NS(=O)(=O)c3ccc(C#N)cc3)c2)C2CC2)c(=O)o1 (stereo not drawn)	5.7

State, in one line, measured Ki of COc1ccc2c(O)c(C(c3cccc(NS(=O)(=O)c4ccc(F)cc4)c3)C3CC3)c(=O)oc2c1 (stereo not drawn) 7.7

State, in one line, measured Ki of CCC(Cc1ccccc1)c1cc(O)c(C(c2cccc(NS(=O)(=O)c3cn(C)cn3)c2)C2CC2)c(=O)o1 (single isomer, unassigned; diastereomer 1) 0.52

State, in one line, measured Ki of COc1ccc2c(O)c(C(c3cccc(NS(=O)(=O)c4cn(C)cn4)c3)C3CC3)c(=O)oc2c1 (stereo not drawn) 0.7

State, in one line, measured Ki of COc1ccc2c(O)c(C(c3cccc(NS(=O)(=O)c4cccc5cccnc45)c3)C3CC3)c(=O)oc2c1 (stereo not drawn) 4.9

State, in one line, measured Ki of COCCOCCCc1cc(O)c(C(c2cccc(NS(=O)(=O)c3cn(C)cn3)c2)C2CC2)c(=O)o1 (stereo not drawn) 1.6

State, in one line, measured Ki of CCC(Cc1ccccc1)c1cc(O)c(C(c2cccc(NS(=O)(=O)c3ccc(OC)cc3)c2)C2CC2)c(=O)o1 (stereo not drawn) 22

State, in one line, measured Ki of CCC(Cc1ccccc1)c1cc(O)c(C(c2cccc(NS(=O)(=O)c3ccc(Cl)cc3)c2)C2CC2)c(=O)o1 (stereo not drawn) 15

State, in one line, measured Ki of CCC(CC)c1cc(O)c(C(c2cccc(NS(=O)(=O)c3cn(C)cn3)c2)C2CC2)c(=O)o1 (stereo not drawn) 0.54

State, in one line, measured Ki of CCC(CCOCCOC)c1cc(O)c(C(c2cccc(NS(=O)(=O)c3cn(C)cn3)c2)C2CC2)c(=O)o1 (stereo not drawn) 0.88

State, in one line, measured Ki of CCC(Cc1ccccc1)c1cc(O)c(C(c2cccc(NS(=O)(=O)c3cn(C)cn3)c2)C2CC2)c(=O)o1 (mixture of isomers) 1.3

State, in one line, measured Ki of CCC(Cc1ccccc1)c1cc(O)c(C(c2cccc(NS(=O)(=O)c3cccc4cccnc34)c2)C2CC2)c(=O)o1 (stereo not drawn) 3.5
